Tested on: Caco-2
assay remarks: Apparent permeability from apical to basolateral side of human Caco2 cells at 100 uM up to 90 mins
condition summary: caco-2, 1.5 h
Papp: recorded values
Numeric answer only, unit ×10⁻⁶ cm/s assumed.

Here is how some compounds turned out for Papp.
given smiles | Papp (×10⁻⁶ cm/s)
Cn1c(C(F)(F)F)nc2cc(C(=O)O)ccc21 | 9.83
Cc1nc2ccccc2n1C | 9.03
Cc1nc2cc(Cl)c(Cl)cc2n1C | 7.98

Challenge: Need Papp of `COC(=O)Nc1nc2ccc(C(=O)c3ccccc3)cc2[nH]1` , thanks.
Response given: 5.15

Challenge: Need Papp of `O=C(O)c1ccc2nc(C(F)(F)F)[nH]c2c1` , thanks.
Response given: 0.57

Challenge: Need Papp of `Cn1c(N)nc2cc(Cl)ccc21` , thanks.
Response given: 5.21

Challenge: Need Papp of `CCN(CC)C(=O)COC(=O)c1ccc2nc(C(F)(F)F)n(C)c2c1` , thanks.
Response given: 15.4

Challenge: Need Papp of `CSc1nc2cc(Cl)ccc2n1C` , thanks.
Response given: 7.59

Challenge: Need Papp of `Cn1c(C(F)(F)F)nc2ccc(C(=O)O)cc21` , thanks.
Response given: 5.09

Challenge: Need Papp of `COC(=O)c1ccc2[nH]c(C(F)(F)F)nc2c1` , thanks.
Response given: 32.7

Challenge: Need Papp of `CCN(CC)C(=O)COC(=O)c1ccc2c(c1)nc(C(F)(F)F)n2C` , thanks.
Response given: 21.9

Challenge: Need Papp of `COC(=O)c1ccc2nc(C(F)(F)F)n(C)c2c1` , thanks.
Response given: 39.2

Challenge: Need Papp of `COC(=O)c1ccc2c(c1)nc(C(F)(F)F)n2C` , thanks.
Response given: 26.7
